assayed_target: T1, HER3 receptor on cells (HER3- and HER2/HER3-transfected NIH 3T3 cells, SKBR3 cells, BxPC3 cells) (human, UniProt P21860 20-1342)
T1 construct: whole, on cells
assay_explanation: flow cytometry competition on SKBR3 cells; HRG varied; competitor: antibody 12H8-B11 at the concentration giving 50% maximal binding; antibody 12H8-B11 as the displaced probe, SKBR3 cells
measured_parameter: IC50

IC50 measured on heregulin (HRG) (ligand, UniProt Q02297-6 177-237, looked up, also called HRG ligand) SHLVKCAEKEKTFCVNGGECFMVKDLSNPSRYLCKCPNEFTGDRCQNYVMASFYKHLGIEF = ~2.5 nM
